# experimentNotes: activity coefficient (dimensionless); of the first substance listed, at infinite dilution; xn = mol fraction of the nth substance listed
# recordedConditions: 313.15 K; 101 kPa; Liquid; Chromatography; x1 = 0
measurementLabel: activity coefficient
Answer with the value's number alone.

[[record]]
compound = "C=Cc1ccccc1 [styrene] + CCCCOP(=O)([O-])OCCCC.CCCCn1cc[n+](C)c1"
observedvalue = 1.19

[[record]]
compound = "c1ccccc1 [benzene] + CCCCOP(=O)([O-])OCCCC.CCCCn1cc[n+](C)c1"
observedvalue = 1.03

[[record]]
compound = "Cc1ccccc1C [1,2-dimethylbenzene] + CCCCOP(=O)([O-])OCCCC.CCCCn1cc[n+](C)c1"
observedvalue = 1.8

[[record]]
compound = "Cc1ccc(C)cc1 [1,4-dimethylbenzene] + CCCCOP(=O)([O-])OCCCC.CCCCn1cc[n+](C)c1"
observedvalue = 1.91

[[record]]
compound = "C1=CCCCC1 [cyclohexene] + CCCCOP(=O)([O-])OCCCC.CCCCn1cc[n+](C)c1"
observedvalue = 2.2


Attention now turns to another entry.
Exercise: Give recorded activity coefficient. CCCCCC [hexane] + CCCCOP(=O)([O-])OCCCC.CCCCn1cc[n+](C)c1
Solution: 4.73

The origin of these recorded values is the NIST ThermoML archive (doi:10.1021/je201310d).
